# key: entry, value: pIC50
test system: A549; assay: Antiproliferative activity against human A549 cells assessed as inhibition of cell growth measured after 48 hrs by SRB assay; type: functional, cell-based; conditions: A549, 48 h
pIC50 here is simply -log10 of the concentration when that concentration is written in mol/L.

Item COc1ccc(C(c2ccccc2OCCN2CCCCC2)c2cccc3ccccc23)c(OC)c1OC (configuration not stated) ; assay system A549; pIC50 reported as 5.01

Reported A549 pIC50 for item CC/C(=C(\c1ccccc1)c1ccc(OCCN(C)C)cc1)c1ccccc1 [TAMOXIFEN] was 5.00

Per the reported A549 data, `C=C(c1ccc(OC)c(OC)c1OC)c1cccc2ccccc12` has pIC50 of 4.70

# pIC50 measured on A549 for item COc1ccc(C(OCc2ccccc2)c2cccc3ccccc23)c(OC)c1OC (configuration not stated) = 4.87

Item COc1ccc(C(OCc2ccc(C)cc2)c2cccc3ccccc23)c(OC)c1OC (configuration not stated) ; assay system A549; pIC50 reported as 4.80

Data credit: ChEMBL document CHEMBL4680139
